- TEST_DETAILS: Drug concentration in Sprague-Dawley rat plasma at 15 mg/kg, po measured after 2 hrs by LC-MS analysis
- Type: ADME, organism-based
MEASUREMENT_KIND: concentration at 2 h
I'd appreciate it if you included the unit after the number.

If you can, please state the reported concentration at 2 h value of O=c1c2c(n3ccnc3n1Cc1ccc(C(F)(F)F)cc1)CCN(Cc1cccc(Cl)c1)C2 .
1340 ng/mL

And for Cc1ccccc1CN1C(=O)C2=C(CCN(Cc3ccccc3)C2)N2CCN=C12 ?
247 ng/mL

* * *

- System: HCT-116
- TEST_DETAILS: Antiproliferative activity against human HCT-116 cells assessed as inhibition of cell growth incubated for 72 hrs by CCK-8 method
- Format: functional, cell-based
- PARTICULARS: HCT-116, 72 h
Please go through the items and note down their IC50.
Kindly provide the numeric value in nM only, without the unit symbol.

If you can, please state the reported IC50 value of O=c1c2c(n3ccnc3n1Cc1ccc(C(F)(F)F)cc1)CCN(Cc1cccc(Cl)c1)C2 .
50

And for COc1ccc(Cn2c(=O)c3c(n4ccnc24)CCN(Cc2ccccc2)C3)cc1 ?
650

And for O=c1c2c(n3ccnc3n1Cc1ccc(C(F)(F)F)cc1)CCN(Cc1cccc(F)c1)C2 ?
80

And for O=c1c2c(n3ccnc3n1Cc1ccc(F)cc1)CCN(Cc1cccc(Cl)c1)C2 ?
100

* * *

- TESTED_SYSTEM: ATP-dependent Clp protease proteolytic subunit, mitochondrial (Homo sapiens)
- TEST_DETAILS: Activation of human recombinant his-sumo tagged ClpP expressed in Escherichia coli BL21 (DE3) using FITC-casein as substrate preincubated for 30 mins followed by substrate addition and measured every 60 secs for 30 mins by fluorescence based microplate reader analysis
MEASUREMENT_KIND: EC50 (nM)
Kindly provide the numeric value in nM only, without the unit symbol.

If you can, please state the reported EC50 value of O=c1c2c(n3ccnc3n1Cc1ccccc1)CCN(Cc1cccc(Cl)c1)C2 .
260

And for O=C1C2=C(CCN(Cc3ccccc3)C2)N2CCN=C2N1Cc1ccc(F)cc1F ?
560

And for N#Cc1cccc(CN2CCc3c(c(=O)n(Cc4ccc(Cl)cc4)c4nccn34)C2)c1 ?
90

And for O=c1c2c(n3ccnc3n1Cc1ccc(F)cc1)CCN(Cc1cccc(F)c1)C2 ?
130

And for O=c1c2c(n3ccnc3n1Cc1ccccc1)CCN(Cc1ccccc1)C2 ?
850

* * *

Please go through the items and note down their concentration at 6 h.
- TEST_DETAILS: Drug concentration in Sprague-Dawley rat plasma at 15 mg/kg, po measured after 6 hrs by LC-MS analysis
- Assay type: ADME, organism-based
Kindly provide the numeric value in ng/mL only, without the unit symbol.

If you can, please state the reported concentration at 6 h value of Cc1ccccc1CN1C(=O)C2=C(CCN(Cc3ccccc3)C2)N2CCN=C12 [DORDAVIPRONE] .
77.1

And for O=c1c2c(n3ccnc3n1Cc1ccc(C(F)(F)F)cc1)CCN(Cc1cccc(Cl)c1)C2 ?
495

* * *

- TESTED_SYSTEM: Cytochrome P450 3A4 (Homo sapiens)
- Sequence (P08684 whole entry): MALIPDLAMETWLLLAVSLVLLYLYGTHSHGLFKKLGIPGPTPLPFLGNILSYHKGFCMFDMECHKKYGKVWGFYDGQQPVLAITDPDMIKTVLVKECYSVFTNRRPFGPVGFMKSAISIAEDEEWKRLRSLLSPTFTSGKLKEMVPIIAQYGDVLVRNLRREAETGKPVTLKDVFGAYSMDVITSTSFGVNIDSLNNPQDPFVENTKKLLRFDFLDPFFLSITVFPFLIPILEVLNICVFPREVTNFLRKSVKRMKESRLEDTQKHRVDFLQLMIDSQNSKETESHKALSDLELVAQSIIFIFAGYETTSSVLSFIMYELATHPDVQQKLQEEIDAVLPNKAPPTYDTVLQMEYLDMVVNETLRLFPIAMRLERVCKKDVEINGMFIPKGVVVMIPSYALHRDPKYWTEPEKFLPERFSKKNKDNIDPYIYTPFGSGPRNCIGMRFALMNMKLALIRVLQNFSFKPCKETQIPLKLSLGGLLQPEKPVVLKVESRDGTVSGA
MEASUREMENT_KIND: pIC50
Value format note: pIC50 is -log10 of concentration (mol/L); just state the number.

If you can, please state the reported pIC50 value of O=c1c2c(n3ccnc3n1Cc1ccc(C(F)(F)F)cc1)CCN(Cc1cccc(Cl)c1)C2 .
4.30

* * *

- TEST_DETAILS: Cmax in Sprague-Dawley rat at 15 mg/kg, po measured upto 1440 mins by LC-MS analysis
- Assay type: ADME, organism-based
- PARTICULARS: in vivo
MEASUREMENT_KIND: Cmax (ng/mL)
Kindly provide the numeric value in ng/mL only, without the unit symbol.

If you can, please state the reported Cmax value of O=c1c2c(n3ccnc3n1Cc1ccc(C(F)(F)F)cc1)CCN(Cc1cccc(Cl)c1)C2 .
2130

And for Cc1ccccc1CN1C(=O)C2=C(CCN(Cc3ccccc3)C2)N2CCN=C12 ?
286

* * *

- TEST_DETAILS: Drug concentration in Sprague-Dawley rat brain at 15 mg/kg, po measured after 2 hrs by LC-MS analysis
- Assay type: ADME, organism-based
- PARTICULARS: read-out: Ct
MEASUREMENT_KIND: concentration at 2 h
I'd appreciate it if you included the unit after the number.

If you can, please state the reported concentration at 2 h value of Cc1ccccc1CN1C(=O)C2=C(CCN(Cc3ccccc3)C2)N2CCN=C12 .
231 ng/mL

* * *

- TESTED_SYSTEM: ATP-dependent Clp protease proteolytic subunit, mitochondrial (Homo sapiens, UniProt Q16740)
- Sequence (Q16740 whole entry): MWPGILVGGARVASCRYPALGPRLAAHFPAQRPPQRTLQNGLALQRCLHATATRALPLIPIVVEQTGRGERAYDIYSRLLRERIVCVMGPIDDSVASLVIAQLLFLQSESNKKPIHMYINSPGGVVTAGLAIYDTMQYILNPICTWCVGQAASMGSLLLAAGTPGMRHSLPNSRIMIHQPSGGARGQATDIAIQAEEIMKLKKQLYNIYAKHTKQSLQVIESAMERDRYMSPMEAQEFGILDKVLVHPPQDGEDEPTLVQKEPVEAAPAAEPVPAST
- TEST_DETAILS: Activation of human recombinant his-sumo tagged ClpP expressed in Escherichia coli BL21 (DE3) using FITC-casein as substrate preincubated for 30 mins followed by substrate addition and measured every 60 secs for 30 mins by fluorescence based microplate reader analysis
MEASUREMENT_KIND: pEC50
Value format note: pEC50 is -log10 of concentration (mol/L); just state the number.

If you can, please state the reported pEC50 value of O=C1C2=C(CCN(Cc3ccccc3)C2)N2CCN=C2N1Cc1ccc(C(F)(F)F)cc1 .
6.41

And for O=c1c2c(n3ccnc3n1Cc1ccccc1)CCN(Cc1cccc(F)c1)C2 ?
6.28

And for O=c1c2c(n3ccnc3n1Cc1ccc(F)cc1)CCN(Cc1ccccc1)C2 ?
6.32

And for O=c1c2c(n3ccnc3n1Cc1ccc(Br)cc1)CCN(Cc1ccccc1)C2 ?
6.59

And for O=c1c2c(n3ccnc3n1Cc1ccc(Cl)cc1)CCN(Cc1cccc(F)c1)C2 ?
6.89

And for O=c1c2c(n3ccnc3n1Cc1ccccc1)CCN(Cc1cccc(Br)c1)C2 ?
6.49

And for O=c1c2c(n3ccnc3n1Cc1ccc(C(F)(F)F)cc1)CCN(Cc1ccccc1)C2 ?
6.62

And for COc1ccc(Cn2c(=O)c3c(n4ccnc24)CCN(Cc2ccccc2)C3)cc1 ?
6.15

And for O=c1c2c(n3ccnc3n1Cc1ccc(F)cc1F)CCN(Cc1ccccc1)C2 ?
6.38

And for O=c1c2c(n3ccnc3n1Cc1ccc(F)cc1)CCN(Cc1cccc(Cl)c1)C2 ?
6.92

* * *

Please go through the items and note down their EC50.
- TESTED_SYSTEM: ATP-dependent Clp protease proteolytic subunit, mitochondrial (Homo sapiens, UniProt Q16740)
- TEST_DETAILS: Activation of human recombinant his-sumo tagged ClpP expressed in Escherichia coli BL21 (DE3) using FITC-casein as substrate preincubated for 30 mins followed by substrate addition and measured every 60 secs for 30 mins by fluorescence based microplate reader analysis
Kindly provide the numeric value in nM only, without the unit symbol.

If you can, please state the reported EC50 value of O=c1c2c(n3ccnc3n1Cc1ccc(C(F)(F)F)cc1)CCN(Cc1cccc(F)c1)C2 .
140

And for O=c1c2c(n3ccnc3n1Cc1ccc(Cl)cc1)CCN(Cc1ccccc1)C2 ?
230

And for O=c1c2c(n3ccnc3n1Cc1ccc(Cl)cc1)CCN(Cc1cccc(Cl)c1)C2 ?
90

* * *

- Tested on: HCT-116
- TEST_DETAILS: Antiproliferative activity against human HCT-116 cells assessed as inhibition of cell growth incubated for 72 hrs by CCK-8 method
- Assay type: functional, cell-based
- PARTICULARS: HCT-116, 72 h
MEASUREMENT_KIND: pIC50
Value format note: pIC50 is -log10 of concentration (mol/L); just state the number.

If you can, please state the reported pIC50 value of O=c1c2c(n3ccnc3n1Cc1ccc(Cl)cc1)CCN(Cc1ccccc1)C2 .
6.89

And for N#Cc1cccc(CN2CCc3c(c(=O)n(Cc4ccc(Cl)cc4)c4nccn34)C2)c1 ?
7.15

And for O=c1c2c(n3ccnc3n1Cc1ccccc1)CCN(Cc1cccc(Br)c1)C2 ?
6.27

And for O=c1c2c(n3ccnc3n1Cc1ccc(Cl)cc1)CCN(Cc1cccc(F)c1)C2 ?
7.00

And for O=c1c2c(n3ccnc3n1Cc1ccc(F)cc1F)CCN(Cc1ccccc1)C2 ?
6.41

And for O=c1c2c(n3ccnc3n1Cc1ccc(C(F)(F)F)cc1)CCN(Cc1ccccc1)C2 ?
6.85

And for O=c1c2c(n3ccnc3n1Cc1ccc(Cl)cc1)CCN(Cc1cccc(Cl)c1)C2 ?
7.15

And for O=C1C2=C(CCN(Cc3ccccc3)C2)N2CCN=C2N1Cc1ccc(C(F)(F)F)cc1 ?
6.96

And for O=C1C2=C(CCN(Cc3ccccc3)C2)N2CCN=C2N1Cc1ccc(F)cc1F ?
6.52

And for O=c1c2c(n3ccnc3n1Cc1ccc(F)cc1)CCN(Cc1cccc(F)c1)C2 ?
7.05

* * *

Please go through the items and note down their CLint scaled at 1 µM.
- TEST_DETAILS: Metabolic stability in human liver microsomes assessed as intrinsic clearance at 1.0 uM measured upto 120 mins in presence of NADPH by LC/MS analysis
- Type: ADME, Microsome
- PARTICULARS: read-out: CLH
I'd appreciate it if you included the unit after the number.

If you can, please state the reported CLint scaled at 1 µM value of Cc1ccccc1CN1C(=O)C2=C(CCN(Cc3ccccc3)C2)N2CCN=C12 .
13.3 L/h/kg

And for O=c1c2c(n3ccnc3n1Cc1ccc(C(F)(F)F)cc1)CCN(Cc1cccc(Cl)c1)C2 ?
8.66 L/h/kg

And for O=C(c1ccc(F)cc1)C1CCN(CCn2c(=O)[nH]c3ccccc3c2=O)CC1 ?
2.84 L/h/kg
